src = patent US20220144922A1

target: RSV F protein of subtype A strain A2, on virus (respiratory syncytial virus subtype A …, UniProt P03420 26-574); test: cell-based or functional assay
Provide the recorded Neut IC50 (ug/ml) subtype A for the entries that follow.
Enter your answer as a number in µg/mL; do not include the unit.

Value of measured Neut IC50 (ug/ml) subtype A for the entry ADI-15564 (antibody, V domains shown, IgG) VH: QVQLVQSGAEVKKPGSSVKVSCKASGDTFNSYSISWVRQAPGQGLEWMGGILPMFGSSDYAQKFQGRLTITADESTRTAYMELNSLTSEDTAIYYCARDNYYVWTGRYPEFDFWGQGTLVTVSS VL: EIVLTQSPGTLSLSPGDEATLSCRASQSVTSNYLAWYQQRPGQAPRLLISGASRRATAVPDRFSGSGSGTDFTLTISRLEPEDFAVYYCQQYGSTPITFGQGTRLEIK : 0.011

Value of measured Neut IC50 (ug/ml) subtype A for the entry ADI-15604 (antibody, V domains shown, IgG; also called Antibody Number 170) VH: EVQLLESGGGLVKPGGSLRLSCGASGFKFSDYYMSWIRQAPGKGLEWVSHISSSNSYINYADSVKGRFTISRDNARNSLSLQMNSLRAEDTAVYYCARFPLYCSRSSCSHYVDYWGQGTLVTVSS VL: QSVLTQPPSVSGAPGQRVTISCTGSGSNIGAGYDVHWYQQLPGTAPKLLIYDNNNRPSGVPDRFSGSKSGTSASLAITGLQVEDEADYYCQSYDRSLSVVFGGGTKVTVL : 0.081
